# Tested on: VA-ES-BJ tumor spheroid viability
# PROCEDURE TEXT: Anticancer human tumor VA-ES-BJ cell line growth inhibition;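 note: spheroids exposed to compounds for seven days; percent of DMSO vehicle control viability so 100% = untreated growth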
# CONDITIONS USED: second compound 30 pM; first compound 3.16 µM; hits give low values; spheroids with HUVEC and MSC
# Experimental: Multicellular complex tumor spheroid response to DNA repair inhibitors in combination with DNA-damaging drugs This study explores the anticancer activities of DNA-damaging drugs and inhibitors of DNA damage repair, both as single agents and in combinations. […] Twenty-six patient-derived or established malignant cell lines were evaluated representing sarcoma, melanoma, small cell lung cancer (SCLC), non-small cell lung cancer (NSCLC), as well as bladder, ovarian and pancreatic cancers. […]
ENDPOINT: viability, T/C (%)
Field: numeric (%). Do not append units.

Before answering, review these 5 worked examples.
COMPOUND	viability, T/C, %
COc1cc(C)[nH]c(=O)c1CN1CCc2c(Cl)cc(C(OC)C3COC3)c(Cl)c2C1=O (stereo unspecified) + COc1cc2c(cc1O)CCNC21CSC2c3c(OC(C)=O)c(C)c4c(c3C(COC1=O)N1C(O)C3Cc5cc(C)c(OC)c(O)c5C(C21)N3C)OCO4	45.2
Cc1cc(C)c(CNC(=O)c2cc(-c3ccc(CN4CCOCC4)cc3)cc3c2cnn3C2CCCC2)c(=O)[nH]1 + COc1cc2c(cc1O)CCNC21CSC2c3c(OC(C)=O)c(C)c4c(c3C(COC1=O)N1C(O)C3Cc5cc(C)c(OC)c(O)c5C(C21)N3C)OCO4	101
COc1ccc([C@@H](O)c2cc(-c3ncnc4cc(N5CCOCC5)ccc34)c(F)cc2Cl)nn1 + COc1cc2c(cc1O)CCNC21CSC2c3c(OC(C)=O)c(C)c4c(c3C(COC1=O)N1C(O)C3Cc5cc(C)c(OC)c(O)c5C(C21)N3C)OCO4	15.9
CC(C)n1c(=O)n(C)c2cnc3cc(F)c(-c4ccc(OCCCN5CCCCC5)nc4)cc3c21 + COc1cc2c(cc1O)CCNC21CSC2c3c(OC(C)=O)c(C)c4c(c3C(COC1=O)N1C(O)C3Cc5cc(C)c(OC)c(O)c5C(C21)N3C)OCO4	79.1
[2H]c1nc(C)nc([2H])c1-c1cc(NC[C@@H](C)c2cccc3c(C(=O)NC)ccnc23)ncn1 + COc1cc2c(cc1O)CCNC21CSC2c3c(OC(C)=O)c(C)c4c(c3C(COC1=O)N1C(O)C3Cc5cc(C)c(OC)c(O)c5C(C21)N3C)OCO4	85.2

From here, focus on the item given below.
Task: Look up viability, T/C: CC1COCCN1c1cc(-c2ccnn2C)c2ccnc(-c3ccn[nH]3)c2n1 (stereo unspecified) + COc1cc2c(cc1O)CCNC21CSC2c3c(OC(C)=O)c(C)c4c(c3C(COC1=O)N1C(O)C3Cc5cc(C)c(OC)c(O)c5C(C21)N3C)OCO4
Output: 4.98

###

# Test system: VA-ES-BJ tumor spheroid viability
# PROCEDURE TEXT: Anticancer human tumor VA-ES-BJ cell line growth inhibition;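 note: spheroids exposed to compounds for seven days; percent of DMSO vehicle control viability so 100% = untreated growth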
# CONDITIONS USED: second compound 10 µM; first compound 1 µM; hits give low values; spheroids with HUVEC and MSC
ENDPOINT: viability, T/C (%)
Field: numeric (%). Do not append units.

COMPOUND	TESTED TARGET	OUTPUT UNIT	viability, T/C
Cc1cc(C)c(CNC(=O)c2cc(-c3ccc(CN4CCOCC4)cc3)cc3c2cnn3C2CCCC2)c(=O)[nH]1 + Cn1nnc2c(C(N)=O)ncn2c1=O	VA-ES-BJ tumor spheroid viability	%	109
[2H]c1nc(C)nc([2H])c1-c1cc(NC[C@@H](C)c2cccc3c(C(=O)NC)ccnc23)ncn1 + Cn1nnc2c(C(N)=O)ncn2c1=O	VA-ES-BJ tumor spheroid viability	%	101

Task: Look up viability, T/C: CC(C)n1c(=O)n(C)c2cnc3cc(F)c(-c4ccc(OCCCN5CCCCC5)nc4)cc3c21 + Cn1nnc2c(C(N)=O)ncn2c1=O
Output: 103
